Kd values, listed per item
# experimental system: T1, human IL-6 receptor (soluble hIL-6R) (human, UniProt P08887 20-357, limits assumed, biotin-labeled in the ELISA experiments (sites not given))
# T1 construct: also called biotin-labeled hIL-6R
# T1 sequence: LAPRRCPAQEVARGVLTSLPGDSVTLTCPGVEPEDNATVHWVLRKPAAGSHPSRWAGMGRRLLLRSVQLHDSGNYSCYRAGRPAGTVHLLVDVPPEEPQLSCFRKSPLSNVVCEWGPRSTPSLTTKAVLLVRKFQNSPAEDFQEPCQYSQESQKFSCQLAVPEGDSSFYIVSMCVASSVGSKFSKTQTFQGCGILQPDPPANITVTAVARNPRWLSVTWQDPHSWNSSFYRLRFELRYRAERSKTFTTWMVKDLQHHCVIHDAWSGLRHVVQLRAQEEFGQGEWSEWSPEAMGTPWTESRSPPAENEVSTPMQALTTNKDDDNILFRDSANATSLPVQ
# protocol notes: SPR Biacore T200, IL-6R immobilised on CM5, antibody analyte in a concentration series, 1 mM ATP, 25 C; KD from plot of equilibrium value against antibody concentration; SPR, IL-6R on the chip, antibody concentration series, 1 mM ATP, 25 C
# Description: The running buffer was used: 20 mmol/1 ACES, 150 mmol/l NaCl, 0.05% (w/v) Tween20, pH 7.4. Assay was carried out at 25° C. […] For dilution of the antibodies, the running buffer or the running buffer containing any one of ATP, ADP, AMP, cAMP, and adenosine (ADO) were used. […] The dissociation constant KD (mol/L) of each clone for IL-6R was calculated from a plot of equilibrium value against antibody concentration. The parameters were calculated using the Biacore T200 Evaluation Software (GE Healthcare).
Record the value in nM, omitting the unit from your answer.

INSERT INTO measurements (binder, test_result) VALUES
  ('6RAD2C1-4_001 (antibody, human IgG1, kappa, V domains shown, also called 6RAD2C1-4_01) VH: EVQLVESGGDLVKPGGGLRLSCAASGFTFSGHTMNWVRQAPGKGLEWVSSISSRSNYIYYADSVKGRFTISRDNAKNSLYLQMNSLRAEDTAVYYCARYGRLHDRNWVFDYWGQGTLVTVSS VL: QSALTQPPSASGSPGQTVTISCTGTSTDVGDYNYVSWYQQHPGKAPKLMIYQVSKKPSGVPDRFSGSKSGNTASLTVSGLQAEDEADYFCSSRSYGAGVVFGGGTKLTVLR', 300),
  ('6RAD2C1-4_030 (antibody, human IgG1, kappa, V domains shown, also called 6RAD2C1-4_30) VH: EVQLVESGGDLVKPGGGLRLSCAASGFTFSSYTMNWVRQAPGKGLEWVSSISSRSGYAYYADSVKGRFTISRDNAKNSLYLQMNSLRAEDTAVYYCARFGALNTLNWVFDYWGQGTLVTVSS VL: QSALTQPPSASGSPGQTVTISCTGTSTDVGDYNYVSWYQQHPGKAPKLMIYQVSKKPSGVPDRFSGSKSGNTASLTVSGLQAEDEADYFCSTRTANAGVLFGGGTKLTVLR', 330);

Now consider the entry below.
Value of measured Kd for the entry 6RAD2C1-4_011 (antibody, human IgG1, kappa, V domains shown, also called 6RAD2C1-4_11) VH: EVQLVESGGDLVKPGGGLRLSCAASGFTFSGHTMNWVRQAPGKGLEWVSSISSRSSYIYYADSVKGRFTISRDNAKNSLYLQMNSLRAEDTAVYYCARYGALGQMNWVFDYWGQGTLVTVSS VL: QSALTQPPSASGSPGQTVTISCTGTSTDVGDYNYVSWYQQHPGKAPKLMIYSVSKRPSGVPDRFSGSKSGNTASLTVSGLQAEDEADYFCSSRSSSMNVLFGGGTKLTVLR : 230
